B1: CPEB3 Ribozyme (parent)
chain: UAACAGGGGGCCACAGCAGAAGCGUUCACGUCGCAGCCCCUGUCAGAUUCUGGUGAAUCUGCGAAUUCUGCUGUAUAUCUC

Variants of: B1
measurement notes: self-cleavage, relative activity (ratio to wild type); higher = more cleavage; in vitro, sequencing
Binning scheme for self-cleavage: bottom end: < 0.2; midrange: ≥ 0.2 and < 0.3; top end: ≥ 0.3

Hello team, could you let me know which band the following variant falls into: G6A U58C
bottom end
